target: human neutrophil elastase (Homo sapiens); assay: Inhibition of human neutrophil elastase (hydrolysis of MeOSuc-AAPV-pNA); settings: substrate MeOSuc-AAPV-pNA 0.3 mM, enzyme 10 nM, 37° C., pH 8; read-out: Human neutrophil elastase (hNE) IC50
Sequence (P08246 30-267): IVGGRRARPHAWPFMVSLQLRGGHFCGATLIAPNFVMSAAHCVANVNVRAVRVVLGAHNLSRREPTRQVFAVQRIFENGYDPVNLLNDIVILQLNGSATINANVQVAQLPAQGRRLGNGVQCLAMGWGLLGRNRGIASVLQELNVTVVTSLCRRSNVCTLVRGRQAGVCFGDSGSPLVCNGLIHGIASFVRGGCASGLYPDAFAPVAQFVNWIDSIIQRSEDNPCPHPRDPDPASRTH
Where a SMILES comes first, the peptide text is derived from it. [ ]: non-standard residue; d: D form. Gly(octyl) = CCCCCCCC[C@H](N)C(=O)O; hSer = N[C@@H](CCO)C(=O)O; Dab = NCC[C@H](N)C(=O)O; Nlys = NCCCCNCC(=O)O
value.type: pIC50
Lab note — pIC50 values are minus log10 of concentrations in M.

compound: CC[C@H](C)[C@@H]1NC(=O)[C@H](CO)NC(=O)[C@H](C)NC(=O)[C@H]([C@@H](C)O)NC(=O)[C@H](CCC(=O)O)NC(=O)[C@H](CCNC(=O)[C@@H](N)Cc2ccccc2)NC(=O)[C@@H]2CCCN2C(=O)[C@H]2CCCN2C(=O)[C@H](Cc2ccc(O)cc2)NC(=O)[C@H](CCCCN)NC(=O)[C@H](CCC(N)=O)NC(=O)[C@@H]2CCCN2C(=O)[C@@H]2CCCN2C1=O [Example 9] (cyclo([Dab](Phe)ETASIPPQKY[dP]P))
value.type: pIC50
numeric.value: 7.76

Reported pIC50, compound CCCCCCCC[C@@H]1NC(=O)[C@@H]2CCCN2C(=O)[C@H]2CCCN2C(=O)[C@H](CCO)NC(=O)[C@H](CCCCN)NC(=O)[C@H](CCC(N)=O)NC(=O)[C@@H]2CCCN2C(=O)[C@@H]2CCCN2C(=O)[C@H]([C@@H](C)CC)NC(=O)[C@H](CO)NC(=O)[C@H](C)NC(=O)[C@H]([C@@H](C)O)NC(=O)[C@H](CCC(=O)O)NC1=O [Example 4] (cyclo([Gly(octyl)]ETASIPPQK[hSer][dP]P)) : ____
8.07

Follow-up item: CCCCCCCC[C@@H]1NC(=O)[C@@H]2CCCN2C(=O)[C@H]2CCCN2C(=O)[C@H]([C@@H](C)O)NC(=O)[C@H](CCCCN)NC(=O)[C@H](CCC(N)=O)NC(=O)[C@@H]2CCCN2C(=O)CN(CCCCN)C(=O)[C@H]([C@@H](C)CC)NC(=O)[C@H](CO)NC(=O)[C@H](C)NC(=O)[C@H]([C@@H](C)O)NC(=O)[C@H](CCC(=O)O)NC1=O [Example 33] (cyclo([Gly(octyl)]ETASI[Nlys]PQKT[dP]P))
8.15

Follow-up item: CCCCCCCC[C@@H]1NC(=O)[C@H](C(C)C)NC(=O)[C@@H](Cc2ccc(O)cc2)NC(=O)[C@H]([C@@H](C)O)NC(=O)[C@H](CCCCN)NC(=O)[C@H](CCC(N)=O)NC(=O)[C@@H]2CCCN2C(=O)[C@@H]2CCCN2C(=O)[C@H]([C@@H](C)CC)NC(=O)[C@H](CO)NC(=O)[C@H](C)NC(=O)[C@H]([C@@H](C)O)NC(=O)[C@H](CCC(=O)O)NC1=O [Example 23] (cyclo([Gly(octyl)]ETASIPPQKT[dY]V))
8.22

Follow-up item: CCCCCCCC[C@@H]1NC(=O)[C@H](CCC(=O)O)NC(=O)[C@@H](CCCCN)NC(=O)[C@H]([C@@H](C)O)NC(=O)[C@H](CCCCN)NC(=O)[C@H](CCC(N)=O)NC(=O)[C@@H]2CCCN2C(=O)[C@@H]2CCCN2C(=O)[C@H]([C@@H](C)CC)NC(=O)[C@H](CO)NC(=O)[C@H](C)NC(=O)[C@H]([C@@H](C)O)NC(=O)[C@H](CCC(=O)O)NC1=O [Example 29] (cyclo([Gly(octyl)]ETASIPPQKT[dK]E))
7.93
